- assayed_target: ACC2 from rat skeletal muscle (Rattus norvegicus, UniProt Q1HEC0)
- Construct: The livers (for ACC1 preparation) or skeletal muscle tissue (for ACC2 preparation) are removed; from tissue; host or cells: skeletal muscle of male CD rats (fasted, then fed a high sucrose diet)
- Sequence (Q1HEC0 17-2455): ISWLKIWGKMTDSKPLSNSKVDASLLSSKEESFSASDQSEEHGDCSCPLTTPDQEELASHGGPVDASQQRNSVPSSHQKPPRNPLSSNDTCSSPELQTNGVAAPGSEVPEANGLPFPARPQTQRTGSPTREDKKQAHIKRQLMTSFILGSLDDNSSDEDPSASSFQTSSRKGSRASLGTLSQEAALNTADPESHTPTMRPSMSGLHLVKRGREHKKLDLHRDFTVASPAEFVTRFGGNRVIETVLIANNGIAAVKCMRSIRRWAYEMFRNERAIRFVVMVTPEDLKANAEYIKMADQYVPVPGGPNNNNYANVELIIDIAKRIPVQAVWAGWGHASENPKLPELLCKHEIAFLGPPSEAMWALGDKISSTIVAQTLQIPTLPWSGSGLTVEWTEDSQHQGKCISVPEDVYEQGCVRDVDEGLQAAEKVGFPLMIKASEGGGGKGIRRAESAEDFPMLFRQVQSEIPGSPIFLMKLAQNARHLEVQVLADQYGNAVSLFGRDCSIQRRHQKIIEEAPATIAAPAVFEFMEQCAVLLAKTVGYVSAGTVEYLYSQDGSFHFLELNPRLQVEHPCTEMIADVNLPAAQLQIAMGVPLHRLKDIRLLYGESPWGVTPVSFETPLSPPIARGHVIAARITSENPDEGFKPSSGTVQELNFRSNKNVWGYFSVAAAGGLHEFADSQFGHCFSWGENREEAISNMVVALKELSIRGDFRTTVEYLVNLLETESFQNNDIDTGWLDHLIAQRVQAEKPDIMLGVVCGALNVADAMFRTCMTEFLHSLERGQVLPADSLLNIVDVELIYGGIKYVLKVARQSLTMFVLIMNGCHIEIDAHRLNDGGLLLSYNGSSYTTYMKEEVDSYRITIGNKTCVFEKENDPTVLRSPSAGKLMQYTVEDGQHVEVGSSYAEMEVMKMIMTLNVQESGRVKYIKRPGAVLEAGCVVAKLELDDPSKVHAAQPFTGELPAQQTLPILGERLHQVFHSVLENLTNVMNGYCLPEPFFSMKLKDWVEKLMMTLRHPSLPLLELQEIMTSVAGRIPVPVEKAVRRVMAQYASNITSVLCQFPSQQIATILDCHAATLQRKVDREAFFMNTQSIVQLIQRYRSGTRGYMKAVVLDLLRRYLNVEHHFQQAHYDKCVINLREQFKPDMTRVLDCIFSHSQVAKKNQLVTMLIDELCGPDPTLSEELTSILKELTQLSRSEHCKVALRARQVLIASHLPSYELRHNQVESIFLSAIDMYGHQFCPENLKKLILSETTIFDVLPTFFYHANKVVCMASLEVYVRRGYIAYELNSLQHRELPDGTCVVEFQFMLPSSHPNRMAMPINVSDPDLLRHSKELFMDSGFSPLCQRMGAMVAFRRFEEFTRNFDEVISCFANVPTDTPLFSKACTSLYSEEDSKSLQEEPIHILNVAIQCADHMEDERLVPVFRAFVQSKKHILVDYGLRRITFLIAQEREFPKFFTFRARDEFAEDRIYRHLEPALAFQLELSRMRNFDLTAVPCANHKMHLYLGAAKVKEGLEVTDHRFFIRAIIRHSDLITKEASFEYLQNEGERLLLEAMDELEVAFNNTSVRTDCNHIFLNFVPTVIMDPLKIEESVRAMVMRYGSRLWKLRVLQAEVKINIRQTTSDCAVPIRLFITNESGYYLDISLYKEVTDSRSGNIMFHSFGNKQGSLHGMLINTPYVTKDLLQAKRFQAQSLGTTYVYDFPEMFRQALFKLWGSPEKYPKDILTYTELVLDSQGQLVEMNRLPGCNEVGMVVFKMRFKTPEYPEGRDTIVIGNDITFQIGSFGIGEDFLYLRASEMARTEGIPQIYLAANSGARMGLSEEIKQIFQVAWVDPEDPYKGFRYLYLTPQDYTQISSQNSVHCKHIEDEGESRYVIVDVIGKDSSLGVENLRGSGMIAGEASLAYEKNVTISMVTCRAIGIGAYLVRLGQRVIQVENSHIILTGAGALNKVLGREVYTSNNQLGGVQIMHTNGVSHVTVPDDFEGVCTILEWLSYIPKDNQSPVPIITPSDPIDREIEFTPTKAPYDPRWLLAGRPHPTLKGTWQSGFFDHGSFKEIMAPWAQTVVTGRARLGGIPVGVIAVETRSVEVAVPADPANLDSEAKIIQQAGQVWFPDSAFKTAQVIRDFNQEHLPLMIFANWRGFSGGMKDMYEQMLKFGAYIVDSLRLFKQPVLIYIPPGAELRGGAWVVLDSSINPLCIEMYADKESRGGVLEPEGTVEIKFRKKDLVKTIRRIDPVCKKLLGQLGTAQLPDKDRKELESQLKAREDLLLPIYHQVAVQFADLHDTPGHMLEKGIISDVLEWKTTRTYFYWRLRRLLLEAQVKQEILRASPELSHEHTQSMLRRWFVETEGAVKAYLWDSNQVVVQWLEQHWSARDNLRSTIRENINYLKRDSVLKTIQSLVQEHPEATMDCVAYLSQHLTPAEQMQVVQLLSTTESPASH
- protocol_text: Direct inhibition of ACC2 activity (14C-bicarbonate incorporation)
- Type: biochemical
- stated_conditions: ACC2 from rat skeletal muscle
Where a name gives a salt, the structure may show the parent alone.
measured_property: IC50 (nM)

COc1ccc2c(c1)C(=O)CC1(CCN(C(=O)c3cc(C)c4[nH]ncc4c3)CC1)O2 [Ex. A7, trifluoroacetic acid salt] ... 138
Cc1cc2c(cc1C)C(=O)CC1(CCN(C(=O)c3cc(C)c4[nH]ncc4c3)CC1)O2 ... 36.4
CCOc1ccc2c(c1)C(=O)CC1(CCN(C(=O)c3cc(Cl)c4[nH]ncc4c3)CC1)O2 ... 34.3
Cc1cc2c(cc1Cl)C(=O)CC1(CCN(C(=O)c3cc(Cl)c4[nH]ncc4c3)CC1)O2 ... 127

[I] Cc1cc(C(=O)N2CCC3(CC2)CC(=O)c2cc(OC(C)C)ccc2O3)cc2cn[nH]c12
[II] COc1ccc2c(c1)C(=O)CC1(CCN(C(=O)c3cc(Cl)c4[nH]ncc4c3)CC1)O2
Qu. Looking at recorded values for IC50, does I or II come in lower? Please reply using the label of the selected record.
Ans. I
(I: 17.2 nM, II: 231 nM)
